Assignment: determine reported GI50 for the given compounds.
# Test system: 786-0
# ASSAY_METHOD_TEXT: NCI tumour cell line growth inhibition, 48 h
Calls of active or inactive are those of the source. Cut-off read from the data, not from the text of the source: active = GI50 up to about 1.1 µM and inactive = higher.

Just so you know, measured GI50 for CC(C)(C)/N=C1\C(=O)C2(C)CCC1C2(C)C (stereo unspecified) came out at > 100 µM (inactive)

Just so you know, measured GI50 for C/C(=N/O)c1cccc(Nc2nc3ccc(Cl)cc3c3[nH]c4ccccc4c23)c1 came out at 1.36 µM (inactive)

Just so you know, measured GI50 for CCOC(=O)c1ccc2nc(-c3ccc(S(=O)(=O)F)cc3)cc(O)c2c1 came out at 36.4 µM (inactive)

Just so you know, measured GI50 for CC1=C[P+](c2ccccc2)(c2ccccc2)c2ccccc2O1 came out at 25.2 µM (inactive)

Just so you know, measured GI50 for NS(=O)(=O)c1ccc(/C=C/c2ccc(O)cc2)cc1 came out at 10.7 µM (inactive)

Just so you know, measured GI50 for Clc1ccc(-c2nc(-c3ccc(Cl)cc3)[s+]s2)cc1 came out at 38 µM (inactive)

====

# System: HOP-62
# ASSAY_METHOD_TEXT: NCI tumour cell line growth inhibition, 48 h
Activity calls are given as the source filed them. Cut-off read from the data, not from the text of the source: active = GI50 up to about 1.1 µM and inactive = higher. Starred links: 1 amine or outer side, 2 acyl side, 3 side chain; linkers in the order of their positions; H or OH if unused. Non-standard residues stand in square brackets, D forms with d. Residues, ends and D or L forms follow the SMILES beside them. ξ: configuration not given here. X24 = O=C(C(CC(O)CO)O[*:1])[*:2]; Ile(3ξ) = CCC(C)[C@H](N)C(=O)O; NMeV = CN[C@H](C(=O)O)C(C)C; NMeA = CN[C@@H](C)C(=O)O; βAla = NCCC(=O)O
Outcomes you can answer with include only these: True for active, False for inactive

Query string: Outcome? CCC(C)[C@@H]1NC(=O)[C@@H]2CCCN2C(=O)C(CC(O)CO)OC(=O)CCNC(=O)[C@H](C)N(C)C(=O)[C@H](C(C)C)N(C)C1=O (some centres undefined) (cyclo([Ile(3ξ)][NMeV][NMeA][βAla][X24]P))
Result string: False

Query string: Outcome? COc1ccc(NC(=O)CC(=O)N2N=C(C)C(/N=N/c3ccc(C(=O)O)cc3)C2=O)cc1 (centres undefined)
Result string: False

Query string: Outcome? O=C(/C=C1\C[C@H]2C=Nc3ccccc3C(=O)N2C1)NCCCCCNC(=O)/C=C1\C[C@H]2C=Nc3ccccc3C(=O)N2C1
Result string: False

Query string: Outcome? C[N+](C)(CCNC(=O)c1cccc2cc3ccccc3nc12)Cc1ccc([N+](=O)[O-])s1
Result string: False

Query string: Outcome? CCSCCCC(=O)O
Result string: False

Query string: Outcome? N#Cc1c(-c2ccccc2)cc(-c2ccccc2)n(C2OCC(O)C(O)C2O)c1=S (centres undefined)
Result string: False

Query string: Outcome? O=C1CC(=O)NC(NN2C(=O)/C(=C/C(=O)c3ccco3)N=C2c2ccccc2)=N1
Result string: False

Query string: Outcome? Cc1ccc(/C=C2/N/C(=N\N=C/c3ccccc3)NC2=O)cc1
Result string: False

Query string: Outcome? O=C1Nc2ccccc2/C1=N/NC(=S)Nc1ccc(Cl)cc1
Result string: False

Query string: Outcome? COc1c(O)cc(O)c2c(=O)cc(-c3ccccc3)oc12
Result string: False

Query string: Outcome? O=C1C(Cl)=C(N2C(=O)CCCC2=O)C(=O)c2ccccc21
Result string: False

Query string: Outcome? C=CCOC1CC(n2cnc3c(N)ncnc32)OC1CO (centres undefined)
Result string: False

Query string: Outcome? O=C1NC(N2CCCCC2)=N/C1=C\c1ccccc1
Result string: False

Query string: Outcome? O=C1c2ccccc2C2(O)Oc3cccc(O)c3C12O (centres undefined)
Result string: False

Query string: Outcome? [O-][S+](c1ccc(Cl)cc1)c1ccccc1C1=NCCN1 (centres undefined)
Result string: False

Query string: Outcome? CCOC(=O)C1=C(C)N(NC(N)=O)C(C)(O)C12CCOC2=O (centres undefined)
Result string: False

Query string: Outcome? CCCCc1cc2c(C)cc(=O)oc2c(O)c1O
Result string: False

Query string: Outcome? CC(C)(C)/N=c1/n(C(C)(C)C)oc(=O)n1-c1ccccc1
Result string: False

Query string: Outcome? CN1CCN(CCCN)CC1
Result string: False

Query string: Outcome? N#Cc1ccc(OC(=O)c2ccc(NC(=N)N)cc2)cc1.c1ccncc1
Result string: False

Query string: Outcome? CC1=C(N2CC2)C(=O)c2ccccc2C1=O
Result string: True

Query string: Outcome? O=C(O)COc1ccccc1C(=O)Nc1ccccc1
Result string: False

Query string: Outcome? COC(=O)c1cc2/c(=N/O)c3ccccc3sc2o1
Result string: False

Query string: Outcome? CCOC(=O)/C=C/c1c[nH]c(=O)[nH]c1=O
Result string: False

Values were extracted from ChEMBL document CHEMBL1201862.
